Endpoint: glass transition temperature (°C)

(I) *CCOCCOCCOCCOCCOc1ccc(/C=C(\C)c2ccc(O*)cc2)cc1 (repeat unit)
(II) *Oc1ccc(NC(=O)c2cccc(C(=O)Nc3ccc(Oc4ccc(C(c5ccc(*)cc5)(C(F)(F)F)C(F)(F)F)cc4)cc3)c2)cc1 (repeat unit)
Of I versus II , which is the one with smaller reported glass transition temperature? // return label of chosen record I
(I: 17.00 °C, II: 228.50 °C)

(1) *Oc1ccc(Oc2ccc(C(=O)c3ccc(*)cc3)cc2)cc1 (repeat unit)
(2) *c1cc(Oc2c(C)cc(-c3cc(C)c(Oc4cc(N5C(=O)c6ccc(Oc7ccc8c(c7)C(=O)N(*)C8=O)cc6C5=O)cc(C(F)(F)F)c4)c(C)c3)cc2C)cc(C(F)(F)F)c1 (repeat unit)
(3) *O[Si](*)(C)OCCCCCCCCCCCOc1ccc(C2COC(c3ccc(OCC(C)CC)cc3)OC2)cc1 (repeat unit)
Could you please sort these 3 entries by glass transition temperature from high to low? Returns: the labels arranged in the requested order. 2, 1, 3

---

Endpoint: glass transition temperature (°C)

Past entries and their recorded results:
*CC(*)OC(=O)C(F)(F)C(F)(F)C(F)(F)C(F)(F)C(F)(F)F (repeat unit) : -9.00
*C1CCC(N2C(=O)c3ccc(-c4ccc5c(c4)C(=O)N(*)C5=O)cc3C2=O)CC1 (repeat unit) : 360.00
*NC1CCC(CC2CCC(NC(=O)CCCCC(*)=O)CC2)CC1 (repeat unit) : 185.00
*c1ccc([Si](C)(C)[Si](*)(C)C)s1 (repeat unit) : 15.00
*c1ccc(Oc2ccc(-c3ccc(Oc4ccc(-c5nnc(*)c6c(-c7ccccc7)c(-c7ccc8ccccc8c7)c(-c7ccc8ccccc8c7)c(-c7ccccc7)c56)cc4)cc3)cc2)cc1 (repeat unit) : 334.00

(P) *c1ccc2c(c1)C(=O)N(c1ccc(S(=O)(=O)c3ccc(N4C(=O)c5ccc(C(F)(F)C(F)(F)C(*)(F)F)cc5C4=O)cc3)cc1)C2=O (repeat unit)
(Q) *c1cc(CC(=O)OCCCCCCOc2ccc(/N=N/c3ccc(C#N)cc3)cc2)c(*)s1 (repeat unit)
Given P and Q , report the one with the higher recorded glass transition temperature. Lab note: record the label of whichever item you select. P
(P: 259.00 °C, Q: 64.00 °C)

---

Endpoint: glass transition temperature (°C)

*Oc1ccc(C2(c3ccc(OC(=O)CCCCCCCCCC(*)=O)cc3)c3ccccc3-c3ccccc32)cc1 (repeat unit) : 136.00
*c1ccc(N(c2ccc(C#N)cc2)c2ccc(N3C(=O)c4ccc(Oc5ccc(C(C)(C)c6ccc(C(C)(C)c7ccc(Oc8ccc9c(c8)C(=O)N(*)C9=O)cc7)cc6)cc5)cc4C3=O)cc2)cc1 (repeat unit) : 224.00
*CC(*)(C)OC (repeat unit) : 67.00
*CC(*)c1ccccc1C(=O)OCCCCCC (repeat unit) : 45.00
*c1ccc2c(c1)C(=O)N(c1ccc(Oc3cccc(Oc4ccc(N5C(=O)c6ccc(C(*)(C(F)(F)F)C(F)(F)F)cc6C5=O)cc4)c3C#N)cc1)C2=O (repeat unit) : 280.00

(I) *CCCC(C)(C)CNC(=O)CCCCCCCC(=O)N* (repeat unit)
(II) *C(=O)Nc1ccc(NC(=O)c2ccc3c(c2)C(=O)N(c2ccc(-c4sc(-c5ccc(N6C(=O)c7ccc(*)cc7C6=O)cc5)c(-c5ccccc5)c4-c4ccccc4)cc2)C3=O)cc1 (repeat unit)
Lower value of glass transition temperature belongs to which: I or II ? // respond with label for picked entry I
(I: 63.00 °C, II: 333.00 °C)

---

Endpoint: glass transition temperature (°C)

Answered cases to consult:
*O[Si](C)(C)c1cccc2c1ccc1c([Si](*)(C)C)cccc12 (repeat unit) : 100.00
*CC(*)(C)C(=O)OCCCCCOc1ccc2cc(C(=O)Oc3ccccc3)ccc2c1 (repeat unit) : 48.00
*C(=O)Nc1cccc(NC(=O)c2ccc3c(c2)C(=O)N(c2cccc(P(=O)(c4ccccc4)c4cccc(N5C(=O)c6ccc(*)cc6C5=O)c4)c2)C3=O)n1 (repeat unit) : 156.00

(a) *c1cc(-c2nc3ccccc3[nH]2)cc(-n2c(=O)c3cc4c(=O)n(*)c(=O)c4cc3c2=O)c1 (repeat unit)
(b) *c1ccc2c(c1)C(=O)N(c1ccc(C(=O)Nc3ccc(Oc4ccc(C(C)(C)c5ccc(Oc6ccc(NC(=O)c7ccc(N8C(=O)c9ccc(C(*)(C(F)(F)F)C(F)(F)F)cc9C8=O)cc7)cc6)cc5)cc4)cc3)cc1)C2=O (repeat unit)
(c) *CCOCCOC(=O)C(CCC)C(=O)O* (repeat unit)
Arrange items by their glass transition temperature values in increasing order. As an answer, provide the labels arranged in the order called for. c, a, b

(a) *c1ccc(Oc2ccc(C3(c4ccc(Oc5ccc(N6C(=O)c7ccc(Oc8ccc(C9(c%10ccc(Oc%11ccc%12c(c%11)C(=O)N(*)C%12=O)cc%10)CCC(c%10ccccc%10)CC9)cc8)cc7C6=O)cc5)cc4)CC4CCC3C4)cc2)cc1 (repeat unit)
(b) *CCCCCCCC(=O)OCCCCC1COC(*)O1 (repeat unit)
For this pair, a and b , which shows a numerically higher glass transition temperature? Kindly give the label for the entry you pick. a

---

Endpoint: glass transition temperature (°C)

Illustrative cases are given below, each with its answer.
*C/C=C/C[Si](*)(C)C (repeat unit) : -57.50
*Cc1cc(C(C)(C)C)cc(*)c1O (repeat unit) : 50.00
*c1ccc(C(c2ccccc2)(c2ccc(-n3c(=O)c4cc5c(=O)n(*)c(=O)c5cc4c3=O)cc2)C(F)(F)F)cc1 (repeat unit) : 436.00
*C(=O)OCC(C)(C)COC(=O)N1CCN(*)CC1 (repeat unit) : 70.00
*CCCCCCCCOc1c(OC)cc(/C=C2\CCC/C(=C\c3cc(OC)c(O*)c(OC)c3)C2=O)cc1OC (repeat unit) : 62.00
*Oc1ccc(S(=O)(=O)c2ccc(*)cc2)c2ccccc12 (repeat unit) : 238.00

(1) *Oc1ccc(C(C)(C)c2ccc(OC(*)(Oc3ccccc3)Oc3ccccc3)cc2)cc1 (repeat unit)
(2) *CCOC(=O)Nc1ccc(Cc2ccc(NC(=O)OCCOc3ccc(C4(c5ccc(O*)cc5)c5ccccc5-c5ccccc54)cc3)cc2)cc1 (repeat unit)
Hello, I am sorting some records. Could you say if 1 or 2 has the smaller glass transition temperature value? Please reply using the label of the selected record. 1

---

Endpoint: glass transition temperature (°C)

*/C=C(\F)C(F)(F)C* (repeat unit) : -35.00
*CC(*)(CC(=O)OCC)C(=O)O (repeat unit) : 135.00
*C1C(*)C2CC1C(C(=O)OCCc1ccccc1)C2C(=O)OCCc1ccccc1 (repeat unit) : 254.00
*Oc1ccc(NC(=O)c2cc(C(=O)Nc3ccc(*)cc3)c(C(=O)O)cc2C(=O)O)cc1 (repeat unit) : 207.40
*CC(*)c1cc(-c2ccc(C(=O)OC(C)CC)cc2)ccc1-c1ccc(C(=O)OC(C)CC)cc1 (repeat unit) : 212.50
*c1ccc(Oc2ccc(C(=O)c3ccc(C(=O)c4ccc(Oc5ccc(-c6cc(*)n(-c7ccccc7)n6)cc5)cc4)cc3)cc2)cc1 (repeat unit) : 205.00
*CCCCCCCCCCNC(=O)CCCCCCCCCCCCCCCCC(=O)N* (repeat unit) : 46.00
*C1CCC(CC2CCC(N3C(=O)C4C5C=CC(C6C(=O)N(*)C(=O)C56)C4C3=O)CC2)CC1 (repeat unit) : 239.00
*CCCCCCOC(=O)OCCCCCCOC(=O)OCCCCCCOc1ccc(-c2ccc(O*)cc2)cc1 (repeat unit) : 16.60
*CCC(CC)CC(C)CNC(=O)c1ccc(C(=O)N*)cc1 (repeat unit) : 139.00

(a) *CCCN(*)C(=O)C(F)(F)C(F)(F)C(F)(F)C(F)(F)C(F)(F)C(F)(F)C(F)(F)F (repeat unit)
(b) *CCOC(=O)Nc1ccc(Cc2ccc(NC(=O)OCCOc3ccc(C(C)(C)c4ccc(O*)cc4)cc3)cc2)cc1 (repeat unit)
From the recorded data, which exceeds the other in glass transition temperature: a or b ? State the label of the item chosen. b
(b: 127.00 °C, a: 25.00 °C)

(P) *c1ccc(Oc2ccc(S(=O)(=O)c3ccc(Oc4ccc(-c5nc(-c6cccc(-c7nc(*)c(-c8ccccc8)[nH]7)c6)[nH]c5-c5ccccc5)cc4)cc3)cc2)cc1 (repeat unit)
(Q) *OC(c1ccco1)C(OC(=O)Nc1ccc(Cc2ccc(NC(*)=O)cc2)cc1)c1ccco1 (repeat unit)
Between P and Q , whose recorded glass transition temperature is greater? Kindly give the label for the entry you pick. P

---

Endpoint: glass transition temperature (°C)

These recorded examples may help you get a feel for the data.
*C[Si](*)(CCCC)CCCC (repeat unit) : -30.00
*c1ccc(Oc2ccc(-c3ccc(Oc4ccc(N5C(=O)c6ccc(Oc7ccc(Sc8ccc(Oc9ccc%10c(c9)C(=O)N(*)C%10=O)cc8)cc7)cc6C5=O)cc4)cc3)cc2)cc1 (repeat unit) : 205.00
*c1cccc(*)c1 (repeat unit) : 104.93

(A) *CC(O)COc1ccc(C(=O)c2ccc(OCC(O)COc3ccc(C(C)(C)c4ccc(O*)cc4)cc3)cc2)cc1 (repeat unit)
(B) *CC(O)CN(CCO)S(=O)(=O)c1ccc(-c2ccc(S(=O)(=O)N(CCO)CC(O)COc3ccc(C(C)(C)c4ccc(O*)cc4)cc3)cc2)cc1 (repeat unit)
Pick one: A or B . Which one has the lower reported glass transition temperature? Bench note: the answer is the label of the chosen record. B
(B: 76.00 °C, A: 120.00 °C)

(1) *Nc1ccc(C(c2ccc(NC(=O)c3cc(NC(=O)CCCN4C(=O)c5ccccc5C4=O)cc(C(*)=O)c3)cc2)(C(F)(F)F)C(F)(F)F)cc1 (repeat unit)
(2) *CCCCCCNC(=O)CCCCCC(=O)N* (repeat unit)
(3) *CC(*)c1ccc(C(C)(O)CCCC)cc1 (repeat unit)
Form: Sort by [glass transition temperature] Order [ ascending ] Sort the labels as requested; that list is your answer. 2, 3, 1

(P) *Oc1ccc(NC(=O)c2cc(-c3ccc(C(=O)O)c(C(=O)Nc4ccc(*)cc4)c3)ccc2C(=O)O)cc1 (repeat unit)
(Q) *c1ccc(S(=O)(=O)c2ccc(N3C(=O)c4ccc(Oc5ccc(Oc6ccc7c(c6)C(=O)N(*)C7=O)cc5)cc4C3=O)cc2)cc1 (repeat unit)
Min glass transition temperature? P | Q Label of pick, please. P
